# tgt: Retinoic acid receptor alpha (Homo sapiens)
# testProtocol: ATG_DR5_RAR_CIS: Attagene CIS-FACTORIAL HepG2 Assay for human Retinoic Acid Receptor Alpha (RARE), DR5 submotif (AID 2282934)
# conditionDescription: HepG2 Attagene cis-factorial RARE DR5 reporter, mRNA; actives raise or lower the signal
Active and inactive are the calls of the source. How the source made its calls: active means hit-call score of the fitted dose curve at least 0.9, where 1 is the maximum; inactive means score below 0.9.
Labels: label 1 for active, label 0 for inactive

compound=O=C(O)COc1ccc(Cl)cc1 classification="label 0"
compound=O=[N+]([O-])c1cc([As](=O)(O)O)ccc1O classification="label 0"
compound=CCCCN(CCCCO)N=O classification="label 0"
compound=N#Cc1ccccc1Cl classification="label 0"
compound="CCCSP(=S)(OCC)Oc1ccc(Cl)cc1Cl (stereo not given)" classification="label 0"
compound=CCC[N+](CCC)(CCC)CCC classification="label 0"
compound=CCOP(=S)(OCC)SCSc1cc(Cl)ccc1Cl classification="label 0"
compound=CCCCOC(=O)COC(=O)c1ccccc1C(=O)OCCCC classification="label 0"
compound=Nc1ccc(Br)cc1 classification="label 0"
compound=OCCN(CCO)CCO classification="label 0"
compound=CCOP(=O)(OCC)OC(=CCl)c1ccc(Cl)cc1Cl classification="label 0"
compound=CCN(CCO)CCO classification="label 0"
compound=[Cl][Sn]([c]1ccccc1)([c]1ccccc1)[c]1ccccc1 classification="label 1"
compound=O=NN1CCCCCCC1 classification="label 0"
compound=O=C(NC(=O)c1c(F)cccc1F)Nc1cc(Cl)c(Oc2ncc(C(F)(F)F)cc2Cl)c(Cl)c1 classification="label 0"
compound="CCOC(=O)OC1=C(c2cc(C)ccc2C)C(=O)NC12CCC(OC)CC2 (stereo not given)" classification="label 0"
compound="O=C(NC(=O)c1c(F)cccc1F)Nc1cc(Cl)c(OC(F)(F)C(F)C(F)(F)F)cc1Cl (stereo not given)" classification="label 0"
compound=N#Cc1ccccc1N classification="label 0"
compound=NC(=O)CCl classification="label 0"
compound=C[CH2][Hg][S]c1ccccc1C(=O)O classification="label 1"
compound=c1ccc(-c2cccc(-c3ccccc3)c2)cc1 classification="label 0"
compound=O=[N+]([O-])c1ccc(Cl)c([N+](=O)[O-])c1 classification="label 0"
compound=O=C(NC(=O)c1c(F)cccc1F)Nc1ccc(Cl)cc1 classification="label 0"
compound=CCOP(=S)(OCC)SCS(=O)(=O)C(C)(C)C classification="label 0"
compound=CS(=O)(=O)c1ccc(C(=O)C2C(=O)CCCC2=O)c(Cl)c1COCC(F)(F)F classification="label 0"
compound=CC(F)(F)CC(F)(F)F classification="label 0"
compound=CN(C)CCN(C)C classification="label 0"
compound="OC(Cc1ccccc1Cl)(Cn1[nH]cnc1=S)C1(Cl)CC1 (stereo not given)" classification="label 0"
compound="CCC(C)(C#N)N=NC(C)(C#N)CC (stereo not given)" classification="label 0"
compound=CC[N+](CC)(CC)CC classification="label 0"
compound=ClCc1ccccc1Cl classification="label 0"
compound=O=C1C[C@@H]2OCC=C3CN4CC[C@]56c7ccccc7N1[C@H]5[C@H]2[C@H]3C[C@H]46 classification="label 0"
compound=Fc1cccc(Cl)c1CCl classification="label 0"
compound="C=C(C)C(=O)OCC(CC)CCCC (stereo not given)" classification="label 0"
compound=CCN(CC)C(=O)C(Cl)=C(C)OP(=O)(OC)OC classification="label 0"
compound=Cc1ccc2nc3sc(=O)sc3nc2c1 classification="label 1"
compound=[F][Sn]([c]1ccccc1)([c]1ccccc1)[c]1ccccc1 classification="label 0"
compound=Cc1ccccc1OP(=O)(Oc1ccccc1C)Oc1ccccc1C classification="label 0"
compound=C=CCOC(F)(C(F)(F)F)C(F)(F)F classification="label 0"
compound=O=C(Cc1ccccc1)OCCc1ccccc1 classification="label 0"
compound="CC(C)=CC1C(C(=O)OCc2cccc(Oc3ccccc3)c2)C1(C)C (stereo not given)" classification="label 0"
compound=CN(C1CCCCC1)C1CCCCC1 classification="label 0"
compound="Cc1cc(Cl)ccc1OC(C)C(=O)O (stereo not given)" classification="label 0"
compound=Cc1ccc(CCl)cc1 classification="label 0"
compound=C=CC(=O)NC(C)(C)CC(C)=O classification="label 0"
compound=Cc1cc(Cl)ccc1O classification="label 0"
compound=O=C1C=CC(=O)c2ccccc21 classification="label 0"
compound=O=S(=O)(Oc1ccc(Cl)cc1)c1ccc(Cl)cc1 classification="label 0"
compound=CCCCCCCCCCCCc1cccc(S(=O)(=O)O)c1 classification="label 1"
compound=CN(C)[C@@H]1C(=O)C(C(N)=O)=C(O)[C@@]2(O)C(=O)C3=C(O)c4c(O)ccc(Cl)c4[C@@](C)(O)[C@H]3C[C@@H]12 classification="label 0"
compound=COCC(=O)N(c1c(C)cccc1C)[C@H](C)C(=O)OC classification="label 0"
compound=CCOC(=O)CC(=O)CCl classification="label 0"
compound=Cc1cccc(OP(=O)(Oc2cccc(C)c2)Oc2cccc(C)c2)c1 classification="label 0"
compound=Clc1cc(C(Cl)(Cl)Cl)cnc1Cl classification="label 0"
compound=O=S1(=O)OC(c2cc(Br)c(O)c(Br)c2)(c2cc(Br)c(O)c(Br)c2)c2ccccc21 classification="label 0"

---

# Read-out: TIMP metallopeptidase inhibitor 1 (TIMP1), TIMP1 (gene 7076)
# testProtocol: BSK_hDFCGF_TIMP1: BioMAP Diversity Plus: hDFCGF Assay for TIMP metallopeptidase inhibitor 1 (TIMP1) Biomarker Activity (AID 2283062)
# conditionDescription: primary human foreskin fibroblasts; actives raise or lower the signal
The source made the active and inactive calls. The calls were made as follows: active = hit-call score of the fitted dose curve at least 0.9, where 1 is the maximum; inactive = score below 0.9.
Classes used: True for active, False for inactive

molecule=Nc1c(Oc2ccccc2)cc(O)c2c1C(=O)c1ccccc1C2=O classification=False
molecule=CCOP(=S)(OCC)SCS(=O)(=O)C(C)(C)C classification=False
molecule="CCOC(=O)C(SP(=S)(OC)OC)c1ccccc1 (configuration not stated)" classification=False
molecule="O=c1oc2ccccc2c(O)c1C(CC(O)c1ccc(-c2ccc(Br)cc2)cc1)c1ccccc1 (configuration not stated)" classification=False
molecule=CCOC(=O)CCN(SN(C)C(=O)Oc1cccc2c1OC(C)(C)C2)C(C)C classification=True
molecule=Oc1c(Cl)cc(Cl)cc1Cl classification=False
molecule=O=[N+]([O-])c1ccc(Nc2ccccc2)cc1 classification=False
molecule=COCC(=O)N(c1c(C)cccc1C)[C@H](C)C(=O)OC classification=False
molecule=Cc1c([N+](=O)[O-])c(C)c([N+](=O)[O-])c(C(C)(C)C)c1[N+](=O)[O-] classification=False
molecule="OC(Cc1ccccc1Cl)(Cn1cncn1)C1(Cl)CC1 (configuration not stated)" classification=False
molecule=Clc1cccc(Cl)c1 classification=False
molecule=Oc1ccc(Cc2ccc(O)cc2)cc1 classification=False
molecule=c1ccc(-c2cccc(-c3ccccc3)c2)cc1 classification=True
molecule=Cc1ccc2nc3sc(=O)sc3nc2c1 classification=False
molecule=NC(=O)CCl classification=False
molecule=O=C(Cc1ccccc1)OCCc1ccccc1 classification=False
molecule=CCOP(=O)(OCC)OC(=CCl)c1ccc(Cl)cc1Cl classification=True
molecule=CN(C)C(=S)S classification=True
molecule=N#Cc1cccnc1 classification=False
molecule="C#CCOC(=O)/C=C(C)/C=C/CC(C)CCCC(C)C (configuration not stated)" classification=False
molecule=O=C(O)C1(c2ccc3c(c2)OC[C@H](Cc2ccc(-c4ccccc4)cc2)[C@H]3O)CCCC1 classification=True
molecule=Cc1cc(C(C)(C)c2ccc(O)c(C)c2)ccc1O classification=False
molecule=Oc1c(Br)cc(Br)cc1Br classification=False
molecule=Clc1cccc(Cl)c1Cl classification=False
molecule=O=C(O)COc1cc(Cl)c(Cl)cc1Cl classification=False
molecule=C[C@]12CC[C@@H](O)C[C@@H]1CC[C@@H]1[C@@H]2CC[C@]2(C)C(=O)CC[C@@H]12 classification=False
molecule="CC(C)(COCC1CO1)COCC1CO1 (configuration not stated)" classification=False

---

# testProtocol: APR_HepG2_CellLoss_72hr: Apredica 72-hour HepG2 Assay for Cell Loss (AID 2282915)
# conditionDescription: high-content imaging
Active and inactive are the calls of the source. The calls were made as follows: active = hit-call score of the fitted dose curve at least 0.9, where 1 is the maximum; inactive = score below 0.9.
Possible outcomes: Y (active), N (inactive)

samplesmiles=O=C(O)C1(c2ccc3c(c2)OC[C@H](Cc2ccc(-c4ccccc4)cc2)[C@H]3O)CCCC1 classification=Y
samplesmiles=COc1ccccc1N classification=N
samplesmiles=Oc1c(Cl)cc(Cl)cc1Cl classification=N
samplesmiles=N#Cc1cccnc1 classification=N
samplesmiles=Clc1cccc(Cl)c1 classification=N
samplesmiles=CN(C)C(=S)S classification=Y
samplesmiles=Cc1cc(C)cc(C)c1 classification=N
samplesmiles=O=C(N[C@H]1CN2CCC1CC2)c1ccc2c(c1)OCCO2 classification=N
samplesmiles=OCCN(CCO)CCO classification=N
samplesmiles=Clc1cccc(Cl)c1Cl classification=N
samplesmiles=CC(C)(C)c1ccccc1O classification=N
